biological target: human AT1 receptor (Homo sapiens); construct: expressed in transfected cells; membrane fraction; assay: AT1 receptor antagonistic activity: [125I]-angiotensin II binding assay on human AT1 receptor-expressing CHO-K1 cellular membrane fraction; conditions: 22.5 pM [125I]-angiotensin II, 1 hr room temperature
Recorded IC50 for the following compounds

COMPOUND: CCCc1c(Cc2ccc(-c3ccccc3-c3noc(=O)[nH]3)cc2)c(=O)n([C@H]2CC[C@H](OC3(C(C)(C)O)CC3)CC2)c2ncnn12
TEST_SYSTEM: human AT1 receptor (Homo sapiens)
UNIT_STRING: nM
IC50: 2.3
--
COMPOUND: CCCc1c(Cc2ccc(-c3ccccc3-c3noc(=O)[nH]3)cc2)c(=O)n(C2CCC(=CCO)CC2)c2ncnn12 (stereo not drawn)
TEST_SYSTEM: human AT1 receptor (Homo sapiens)
UNIT_STRING: nM
IC50: 1.6
--
COMPOUND: CCCc1c(Cc2ccc(-c3ccccc3-c3nnn[nH]3)cc2)c(=O)n([C@H]2CC[C@H](c3cnco3)CC2)c2ncnn12
TEST_SYSTEM: human AT1 receptor (Homo sapiens)
UNIT_STRING: nM
IC50: 2.3

###

Target: human AT1 receptor (Homo sapiens, UniProt P30556)
Construct: expressed in transfected cells; membrane fraction
Sequence (P30556 whole entry): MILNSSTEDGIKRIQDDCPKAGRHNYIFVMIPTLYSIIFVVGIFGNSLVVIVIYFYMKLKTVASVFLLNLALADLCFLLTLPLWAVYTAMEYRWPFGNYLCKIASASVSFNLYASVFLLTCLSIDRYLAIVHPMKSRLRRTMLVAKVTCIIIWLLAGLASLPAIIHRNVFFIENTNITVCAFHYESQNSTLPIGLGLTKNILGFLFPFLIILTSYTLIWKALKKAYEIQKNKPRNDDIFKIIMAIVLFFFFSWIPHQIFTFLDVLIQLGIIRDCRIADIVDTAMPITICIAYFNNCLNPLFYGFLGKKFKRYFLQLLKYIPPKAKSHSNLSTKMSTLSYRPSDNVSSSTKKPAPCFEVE
Test: AT1 receptor antagonistic activity: [125I]-angiotensin II binding assay on human AT1 receptor-expressing CHO-K1 cellular membrane fraction
Conditions: 22.5 pM [125I]-angiotensin II, 1 hr room temperature
Protocol: CHO-K1 cell (RIKEN, Japan) capable of stable expression of human AT1 receptor was cultured, recovered, suspended in homogenize buffer (10 mM NaHCO3 (pH 7.4), 5 mM EDTA, 1× Complete EDTA free) [manufactured by Roche, Switzerland], and homogenized. The homogenate was centrifuged at low-speed (900×g, 10 min, 4° C.), and the supernatant was recovered and ultracentrifuged (90,000×g, 1 hr, 4° C.). […]
Reported IC50 values for a set of compounds

COMPOUND: C=C1COC2(CCC(n3c(=O)c(Cc4ccc(-c5ccccc5-c5noc(=O)[nH]5)cc4)c(CCC)n4ncnc34)CC2)OC1
IC50, nM: 3.1
//
COMPOUND: CCCc1c(Cc2ccc(-c3ccccc3-c3noc(=O)[nH]3)cc2)c(=O)n(C2CCCCC2)c2nc(C)nn12
IC50, nM: 1.8
//
COMPOUND: CCCc1c(Cc2ccc(-c3ccccc3-c3noc(=O)[nH]3)cc2)c(=O)n([C@H]2CC[C@H](OC/C(C)=N/OC)CC2)c2ncnn12
IC50, nM: 1.6
//
COMPOUND: CCCc1c(Cc2ccc(-c3ccccc3-c3noc(=O)[nH]3)cc2)c(=O)n(C2CCC3(CC2)OC(C)(C)C(C)(C)O3)c2ncnn12
IC50, nM: 3.5
//
COMPOUND: CCCc1c(Cc2ccc(-c3ccccc3-c3noc(=O)[nH]3)c(C)c2)c(=O)n([C@H]2CC[C@H](OCC(C)(C)O)CC2)c2nc(C)nn12
IC50, nM: 1.6
//
COMPOUND: CCCc1c(C(C)c2ccc(-c3ccccc3-c3noc(=O)[nH]3)cc2)c(=O)n([C@H]2CC[C@H](OCC(C)(C)O)CC2)c2ncnn12 (stereo partly shown)
IC50, nM: 2.9
//
COMPOUND: CCCc1c(Cc2ccc(-c3ccccc3-c3noc(=O)[nH]3)cc2F)c(=O)n([C@H]2CC[C@](C)(OCC(C)(C)O)CC2)c2nc(C)nn12
IC50, nM: 2.2
//
COMPOUND: CCCc1c(Cc2ccc(-c3ccccc3-c3noc(=O)[nH]3)cc2)c(=O)n([C@H]2CC[C@H](c3nnc(C)o3)CC2)c2ncnn12
IC50, nM: 1.7
//
COMPOUND: CCCc1c(Cc2ccc(-c3ccccc3-c3noc(=O)[nH]3)cc2)c(=O)n([C@H]2CC[C@@]3(CCCO3)CC2)c2ncnn12
IC50, nM: 1.6
//
COMPOUND: CCCCc1c(Cc2ccc(-c3ccccc3-c3noc(=O)[nH]3)cc2)c(=O)n(C2CCOC(C)(C)C2)c2nc(C)nn12 (stereo not shown)
IC50, nM: 1.4
//
COMPOUND: CCCc1c(Cc2ccc(-c3ccccc3-c3noc(=O)[nH]3)cc2)c(=O)n([C@H]2CC[C@](C)(OCC(C)(C)O)CC2)c2ncnn12
IC50, nM: 2
//
COMPOUND: CCCc1c(Cc2ccc(-c3ccccc3-c3noc(=O)[nH]3)cc2)c(=O)n(C(C)CC)c2nc(C)nn12 (stereo not shown)
IC50, nM: 1.7
//
COMPOUND: CCCc1c(Cc2ccc(-c3ccccc3-c3noc(=O)[nH]3)cc2)c(=O)n(C2CCOCC2)c2ccnn12
IC50, nM: 2.2

###

target: human AT1 receptor (Homo sapiens, UniProt P30556); construct: expressed in transfected cells; membrane fraction; test: AT1 receptor antagonistic activity: [125I]-angiotensin II binding assay on human AT1 receptor-expressing CHO-K1 cellular membrane fraction; settings: 22.5 pM [125I]-angiotensin II, 1 hr room temperature

COMPOUND: CCCc1c(Cc2ccc(-c3ccccc3-c3noc(=O)[nH]3)cc2)c(=O)n([C@H]2CC[C@H](Oc3ccc(OC)cc3)CC2)c2ncnn12
TEST_SYSTEM: human AT1 receptor (Homo sapiens, UniProt P30556)
IC50 (nM): 2.4

COMPOUND: CCCc1c(Cc2ccc(-c3ccccc3-c3noc(=O)[nH]3)cc2)c(=O)n(C2CCC(OCCOC)CC2)c2ncnn12 (stereo not shown)
TEST_SYSTEM: human AT1 receptor (Homo sapiens, UniProt P30556)
IC50 (nM): 2.1

COMPOUND: CCCc1c(Cc2ccc(-c3ccccc3-c3noc(=O)[nH]3)cc2)c(=O)n([C@H]2CC[C@H](OC(C)C(C)(C)O)CC2)c2ncnn12 (single isomer, unassigned) [Example 318]
TEST_SYSTEM: human AT1 receptor (Homo sapiens, UniProt P30556)
IC50 (nM): 1.8

COMPOUND: CCCc1c(Cc2ccc(-c3ccccc3-c3noc(=O)[nH]3)cc2F)c(=O)n([C@H]2CC[C@H](OC3(C(C)(C)O)CC3)CC2)c2ncnn12
TEST_SYSTEM: human AT1 receptor (Homo sapiens, UniProt P30556)
IC50 (nM): 2.5

COMPOUND: CCCc1c(Cc2ccc(-c3ccccc3-c3noc(=O)[nH]3)cc2)c(=O)n([C@H]2CC[C@]3(CCCO3)CC2)c2ncnn12
TEST_SYSTEM: human AT1 receptor (Homo sapiens, UniProt P30556)
IC50 (nM): 1.4

COMPOUND: CCCc1c(Cc2ccc(-c3ccccc3-c3noc(=O)[nH]3)cc2)c(=O)n([C@H]2CC[C@H](OCC(C)(O)CF)CC2)c2ncnn12 (stereo partly shown)
TEST_SYSTEM: human AT1 receptor (Homo sapiens, UniProt P30556)
IC50 (nM): 1.9

COMPOUND: CCCc1c(Cc2ccc(-c3ccccc3-c3noc(=O)[nH]3)cc2)c(=O)n([C@H]2CC[C@](O)(COC)CC2)c2ncnn12
TEST_SYSTEM: human AT1 receptor (Homo sapiens, UniProt P30556)
IC50 (nM): 2.8

COMPOUND: CCCc1c(Cc2ccc(-c3ccccc3-c3noc(=O)[nH]3)cc2)c(=O)n([C@H]2CC[C@H](OCC#N)CC2)c2ncnn12
TEST_SYSTEM: human AT1 receptor (Homo sapiens, UniProt P30556)
IC50 (nM): 1.9

COMPOUND: CCCc1c(Cc2ccc(-c3ccccc3-c3noc(=O)[nH]3)cc2)c(=O)n([C@H]2CC[C@H](C(=O)OCC)CC2)c2ncnn12
TEST_SYSTEM: human AT1 receptor (Homo sapiens, UniProt P30556)
IC50 (nM): 1.4

COMPOUND: CCCc1c(Cc2ccc(-c3ccccc3-c3noc(=O)[nH]3)cc2)c(=O)n([C@H]2CC[C@H](OCC3(O)CC3)CC2)c2ccnn12
TEST_SYSTEM: human AT1 receptor (Homo sapiens, UniProt P30556)
IC50 (nM): 1.9

COMPOUND: CCCc1c(Cc2ccc(-c3ccccc3-c3noc(=O)[nH]3)cc2)c(=O)n([C@H]2CC[C@H](OCC3(O)CCC3)CC2)c2ncnn12
TEST_SYSTEM: human AT1 receptor (Homo sapiens, UniProt P30556)
IC50 (nM): 1.6

COMPOUND: CCCc1c(Cc2ccc(-c3ccccc3-c3noc(=O)[nH]3)cc2)c(=O)n(Cc2ccc(CC)nc2)c2nc(C)nn12
TEST_SYSTEM: human AT1 receptor (Homo sapiens, UniProt P30556)
IC50 (nM): 2.4

COMPOUND: CCCc1c(Cc2ccc(-c3ccccc3-c3noc(=O)[nH]3)cc2)c(=O)n(CC(C)(C)COC)c2nc(C)nn12
TEST_SYSTEM: human AT1 receptor (Homo sapiens, UniProt P30556)
IC50 (nM): 1.5

###

target: human PPARγ (Homo sapiens, UniProt P37231); construct: expressed in transfected cells; experiment: PPARγ agonistic activity: luciferase reporter assay in PPARγ:RXRα:4ERPP/CHO-K1 cells; type: cell-based; conditions: CHO-K1, test compound 10^−6 M; luciferase activity of control compound X (1 μM) = 100%, non-administration group = 0%
Sequence (P37231 29-505): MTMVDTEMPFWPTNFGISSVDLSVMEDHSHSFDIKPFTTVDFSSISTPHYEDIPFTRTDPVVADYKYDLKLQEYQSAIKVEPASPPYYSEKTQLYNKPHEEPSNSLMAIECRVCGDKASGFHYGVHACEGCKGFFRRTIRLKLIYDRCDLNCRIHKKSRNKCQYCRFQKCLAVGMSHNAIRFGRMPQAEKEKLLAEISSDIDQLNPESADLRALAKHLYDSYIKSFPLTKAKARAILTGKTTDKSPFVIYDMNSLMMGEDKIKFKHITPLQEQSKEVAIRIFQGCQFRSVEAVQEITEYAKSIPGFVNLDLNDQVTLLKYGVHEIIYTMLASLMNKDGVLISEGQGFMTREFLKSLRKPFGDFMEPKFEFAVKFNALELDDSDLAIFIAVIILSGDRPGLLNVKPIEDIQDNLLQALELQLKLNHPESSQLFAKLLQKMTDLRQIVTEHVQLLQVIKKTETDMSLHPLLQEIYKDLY
Sequence (P19793 whole entry partner): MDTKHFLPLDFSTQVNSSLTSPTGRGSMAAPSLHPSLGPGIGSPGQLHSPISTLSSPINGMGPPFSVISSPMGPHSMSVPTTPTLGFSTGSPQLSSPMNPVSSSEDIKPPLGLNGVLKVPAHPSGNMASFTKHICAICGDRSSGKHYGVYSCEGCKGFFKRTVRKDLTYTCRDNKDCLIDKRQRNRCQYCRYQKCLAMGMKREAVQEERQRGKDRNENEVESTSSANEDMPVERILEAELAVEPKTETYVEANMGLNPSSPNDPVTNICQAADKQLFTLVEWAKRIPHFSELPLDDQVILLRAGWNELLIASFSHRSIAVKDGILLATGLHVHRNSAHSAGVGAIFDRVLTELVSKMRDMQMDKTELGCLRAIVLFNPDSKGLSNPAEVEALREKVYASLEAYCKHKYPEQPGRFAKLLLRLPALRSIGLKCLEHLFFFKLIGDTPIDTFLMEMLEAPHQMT
Measured activation at 1 µM by item

COMPOUND: CCCc1c(Cc2ccc(-c3ccccc3-c3noc(=O)[nH]3)cc2)c(=O)n(CC2CC2)c2ncnn12
activation at 1 µM, %: 31
--
COMPOUND: CCCCc1c(Cc2ccc(-c3ccccc3-c3noc(=O)[nH]3)cc2)c(=O)n([C@H]2CC[C@H](OC(C)C(C)(C)O)CC2)c2ncnn12 (stereo partly drawn)
activation at 1 µM, %: 23
--
COMPOUND: CCCc1c(Cc2ccc(-c3ccccc3-c3noc(=O)[nH]3)cc2F)c(=O)n([C@H]2CC[C@H](OC3(C(C)(C)O)CC3)CC2)c2ncnn12
activation at 1 µM, %: 26
--
COMPOUND: CCCc1c(Cc2ccc(-c3ccccc3-c3noc(=O)[nH]3)cc2F)c(=O)n([C@H]2CC[C@H](OCC(C)O)CC2)c2ccnn12 (relative stereo)
activation at 1 µM, %: 30
--
COMPOUND: CCCc1c(Cc2ccc(-c3ccccc3-c3noc(=O)[nH]3)cc2)c(=O)n(C2CCC(=NOC)CC2)c2ncnn12 (stereo not drawn)
activation at 1 µM, %: 25
--
COMPOUND: CCCc1c(Cc2ccc(-c3ccccc3-c3noc(=O)[nH]3)cc2)c(=O)n(C2CCC3(CC2)OCCCO3)c2ncnn12
activation at 1 µM, %: 39
--
COMPOUND: CCCc1c(Cc2ccc(-c3ccccc3-c3noc(=O)[nH]3)cc2)c(=O)n([C@H]2CC[C@H](OC(CC)C(C)(C)O)CC2)c2ncnn12 (stereo partly drawn)
activation at 1 µM, %: 19
--
COMPOUND: CCCc1c(Cc2ccc(-c3ccccc3-c3noc(=O)[nH]3)cc2)c(=O)n([C@H]2CC[C@H](OCC3(O)CC3)CC2)c2ccnn12
activation at 1 µM, %: 18
--
COMPOUND: CCCc1c(Cc2ccc(-c3ccccc3-c3noc(=O)[nH]3)cc2)c(=O)n([C@H]2CC[C@H](OC3(C(C)(C)O)CC3)CC2)c2ncnn12
activation at 1 µM, %: 22
--
COMPOUND: CCCc1c(Cc2ccc(-c3ccccc3-c3noc(=O)[nH]3)cc2F)c(=O)n([C@H]2CC[C@H](O)CC2)c2ncnn12
activation at 1 µM, %: 43
--
COMPOUND: CCCc1c(Cc2ccc(-c3ccccc3-c3noc(=O)[nH]3)cc2)c(=O)n([C@H]2CC[C@H](OCC#N)CC2)c2ncnn12
activation at 1 µM, %: 33
--
COMPOUND: CCCc1c(Cc2ccc(-c3ccccc3-c3noc(=O)[nH]3)cc2F)c(=O)n(C2CCOC(C)(C)C2)c2nc(C)nn12 (stereo not drawn)
activation at 1 µM, %: 17
--
COMPOUND: CCCc1c(Cc2ccc(-c3ccccc3-c3noc(=O)[nH]3)cc2)c(=O)n(C2CCCOC2)c2ncnn12 (stereo not drawn)
activation at 1 µM, %: 21
--
COMPOUND: CCCc1c(Cc2ccc(-c3ccccc3-c3noc(=O)[nH]3)cc2)c(=O)n([C@H]2CC[C@H](OC(C)C(C)(C)O)CC2)c2ncnn12 (single isomer, unassigned) [Example 319]
activation at 1 µM, %: 16
--
COMPOUND: CCCc1c(Cc2ccc(-c3ccccc3-c3noc(=O)[nH]3)cc2)c(=O)n([C@H]2CC[C@]3(CCCO3)CC2)c2ncnn12
activation at 1 µM, %: 58
--
COMPOUND: CCCc1c(Cc2ccc(-c3ccccc3-c3noc(=O)[nH]3)cc2)c(=O)n([C@H]2C[C@H](OCC(O)(CC)CC)C2)c2ncnn12
activation at 1 µM, %: 28
--
COMPOUND: CCCc1c(Cc2ccc(-c3ccccc3-c3noc(=O)[nH]3)cc2)c(=O)n([C@H]2CC[C@H](OCC(O)(CC)CC)CC2)c2nc(C)nn12
activation at 1 µM, %: 17
--
COMPOUND: CCCc1c(Cc2ccc(-c3ccccc3-c3noc(=O)[nH]3)cc2)c(=O)n([C@H]2CC[C@H](OCC(O)C(F)(F)F)CC2)c2ccnn12 (relative stereo)
activation at 1 µM, %: 27
--
COMPOUND: CCCc1c(Cc2ccc(-c3ccccc3-c3noc(=O)[nH]3)cc2)c(=O)n([C@H]2CC[C@H](c3cnco3)CC2)c2ncnn12
activation at 1 µM, %: 41
--
COMPOUND: CCCc1c(Cc2ccc(-c3ccccc3-c3noc(=O)[nH]3)cc2)c(=O)n([C@H]2CC[C@H](OCC(O)C(F)F)CC2)c2ncnn12 (stereo partly drawn)
activation at 1 µM, %: 20
--
COMPOUND: CCCc1c(Cc2ccc(-c3ccccc3-c3noc(=O)[nH]3)cc2F)c(=O)n([C@H]2CC[C@H](OC(CC)C(C)(C)O)CC2)c2ncnn12 (stereo partly drawn)
activation at 1 µM, %: 25
--
COMPOUND: CCCc1c(Cc2ccc(-c3ccccc3-c3noc(=O)[nH]3)cc2)c(=O)n([C@H]2CC[C@H](OCC(C)(O)CF)CC2)c2nc(C)nn12 (stereo partly drawn)
activation at 1 µM, %: 18
--
COMPOUND: CCCc1c(Cc2ccc(-c3ccccc3-c3noc(=O)[nH]3)cc2)c(=O)n([C@H]2CC[C@H](c3nnc(C)o3)CC2)c2ncnn12
activation at 1 µM, %: 28
--
COMPOUND: CCCc1c(Cc2ccc(-c3ccccc3-c3noc(=O)[nH]3)cc2)c(=O)n([C@H]2CC[C@H](Oc3ccc(O)cc3)CC2)c2ncnn12
activation at 1 µM, %: 48
